Test: Comparative bioavailability after oral or intravenous administration to monkeys (plasma LC-MS-MS)
Assay type: in vivo, cynomolgus monkey
Conditions: male, cynomolgus monkey, plasma, iv, 0.5 mg tapentadol free base equiv/kg, male monkey, i.v. tapentadol valine carbamate 0.5 mg tapentadol free base equiv/kg, 4 h; mean
ENDPOINT_NAME: concentration at 4 h

MOLECULE	RESULT
CC[C@H](c1cccc(OC(=O)N[C@H](C(=O)O)C(C)C)c1)[C@H](C)CN(C)C (racemic) [Tapentadol valine carbamate]	16 ng/mL

---

Assay: Comparative bioavailability after oral administration to rats (plasma LC-MS-MS)
Assay type: in vivo
Conditions: male, Sprague Dawley, rat, plasma, po, 10 mg free base equiv/kg, oral tapentadol 10 mg free base equiv/kg, 1 h, mean, animal 5 excluded, read-out: Plasma concentration of tapentadol
ENDPOINT_NAME: concentration at 1 h (ng/mL)

COMPOUND	ENDPOINT_NAME	READOUT_NUMBER
CC[C@@H](c1cccc(O)c1)[C@@H](C)CN(C)C (racemic)	concentration at 1 h	4.34
